- Test system: HT29 colon
- assay method text: NCI tumour cell line growth inhibition, 48 h
Readings of TGI for the listed compounds

Use these answered entries as a reference point.
compound	TGI
CC(C(=O)NCNC(=O)c1ccccc1)C(=O)NCc1ccccc1 (centres undefined)	> 100 µM
COc1cc2nc(NC3CCC3)nc(NC3CCN(C(C)C)CC3)c2cc1OC	3.97 µM
COc1cc(N(CCC#N)CCC#N)ccc1/C(N=Nc1cccc([N+](=O)[O-])c1)=N\NC(=O)c1ccc(C)cc1	> 100 µM
CSC(SC)=C1Sc2cccc(Cl)c2S1	> 100 µM
COc1ccc2c(c1)SC1=Nc3sc4cc(OC)ccc4[n+]3CN12	56.3 µM
O=C1C(=C2C(=O)c3ccccc3[N+]2=O)N([O-])c2ccccc21	94.1 µM

Now for another entry.
Param item = `COc1ccc(N(c2ccc(C#N)cc2)c2ccc(C#N)cc2)cc1` ; retrieve measured TGI.
> 100 µM

----------
- Test system: BT-549 breast
- assay method text: NCI tumour cell line growth inhibition, 48 h; in the data active = GI50 below about 0.43 µM; inactive = the rest
The reply should name one outcome from true = active, false = inactive

Answered cases to consult:
chemical structure	class
COC(=O)[C@@H](C)C[C@H](Cc1ccccc1)NC(=O)c1nc([C@@H](C[C@H](C(C)C)N(C)C(=O)[C@@H](NC(=O)[C@H]2CC(=O)CCN2C)C(C)C)OC(C)=O)sc1C(C)C	true
O[C@@H]1CCCCN1Cc1cc2cc3c(cc2c2cc(OCc4ccccc4)ccc12)OCO3	false

How was `O=c1[nH]c2c(ccc3cnccc32)c2c1CCC2` classified in this test?
true

----------
- Test system: NCI-H23 lung
- assay method text: NCI tumour cell line growth inhibition, 48 h
// GI50 lookup, one value per entry

Sample answers from the record:
compound	measurement label	val
COc1ccc2c(c1)OCC1c3cc(OC)ccc3OC21 (stereo unspecified)	GI50	36200 nM
CC1SC(c2ccc(OCc3ccccc3)cc2)N(NC(=O)C(O)(c2ccccc2)c2ccccc2)C1=O (stereo unspecified)	GI50	2700 nM
COC(=O)[C@@H](C)C[C@H](Cc1ccccc1)NC(=O)c1nc([C@@H](C[C@H](C(C)C)N(C)C(=O)[C@@H](NC(=O)[C@H]2CC(=O)CCN2C)C(C)C)OC(C)=O)sc1C(C)C	GI50	456 nM
CCCCCCCCCCCCNC(=O)N[C@H](C(=O)N[C@H]1/C=C/OCCNC(=O)/C=C/[C@H](C(C)C)NC1=O)C(C)C	GI50	973 nM
CCOc1ccc(-c2nc3ccc(-c4nc5ccc(N6CCN(C)CC6)cc5[nH]4)cc3[nH]2)cc1OCC	GI50	1520 nM

Please examine the following record next.
Field request: GI50 | item: CC(C)OC(=O)OCOP(=O)(OCOC(=O)OC(C)C)C1CCCN(O)C1=O (stereo unspecified)
8470 nM

----------
- Tested on: UACC-257 melanoma
- assay method text: NCI tumour cell line growth inhibition, 48 h
measurement label: TGI

> print(dat)
                                   compound  experimental.target  measurement.label       val
1  C/C(=C\COP(=O)(O)CP(=O)(O)O)CC/C=C(\C)CNc1ccccc1    UACC-257 melanoma                TGI  > 100 µM

For the compound shown here, `CC(=O)O[C@@H]1[C@H]2O[C@H]2[C@H]2O[C@@]2(COC(=O)c2ccccc2)[C@H]1OC(C)=O` , give the reported TGI.
> 100 µM

Form field: reported TGI of O=C(c1ccccc1)N1N=C(C(F)(F)F)CC1(O)C(F)(F)F (stereo not drawn)
> 100 µM
